B1: Ankyrin repeat and SOCS box protein 14, residues 532 to 572; numbered along this chain, A6NK59 (parent)
chain: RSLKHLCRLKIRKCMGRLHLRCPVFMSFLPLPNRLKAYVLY

Variants of: B1
test summary: abundance fitness (aPCA) (normalised: wild type 0, dead -1); higher = more abundant; growth selection in yeast, the domain comes from the species named
assay setup: Homo sapiens
outcome measure: abundance fitness
// response body must contain only the number

Recorded results for 8 variants are shown here.
RSLKHYCRLKIRKCMGRLHLRCPVFMSFLPLPNRLKAYVLY [L6Y]: 0.083
RSDKHLCRLKIRKCMGRLHLRCPVFMSFLPLPNRLKAYVLY [L3D]: -0.331
RSQKHLCRLKIRKCMGRLHLRCPVFMSFLPLPNRLKAYVLY [L3Q]: -0.655
RSLKHLCRLKIRKCMGRLHLRCPVFMSFLGLPNRLKAYVLY [P30G]: 0.337
RSTKHLCRLKIRKCMGRLHLRCPVFMSFLPLPNRLKAYVLY [L3T]: -0.668
RSLKHLCRLKIHKCMGRLHLRCPVFMSFLPLPNRLKAYVLY [R12H]: -0.662
RSLKHLCRLKIRKCMERLHLRCPVFMSFLPLPNRLKAYVLY [G16E]: 0.355
RSLKHLCRLKIRKCMGRLHLWCPVFMSFLPLPNRLKAYVLY [R21W]: 0.275

Notebook: RSLKHLCRLKIRKCMGRLHLRCPVFMSFLPLPMRLKAYVLY [N33M] , abundance fitness read as -0.629

Notebook: RSLKHLCRLKIQKCMGRLHLRCPVFMSFLPLPNRLKAYVLY [R12Q] , abundance fitness read as -0.168
